Measurement target: FGFR3 (Homo sapiens (Human), UniProt P22607)
Sequence (P22607 23-806): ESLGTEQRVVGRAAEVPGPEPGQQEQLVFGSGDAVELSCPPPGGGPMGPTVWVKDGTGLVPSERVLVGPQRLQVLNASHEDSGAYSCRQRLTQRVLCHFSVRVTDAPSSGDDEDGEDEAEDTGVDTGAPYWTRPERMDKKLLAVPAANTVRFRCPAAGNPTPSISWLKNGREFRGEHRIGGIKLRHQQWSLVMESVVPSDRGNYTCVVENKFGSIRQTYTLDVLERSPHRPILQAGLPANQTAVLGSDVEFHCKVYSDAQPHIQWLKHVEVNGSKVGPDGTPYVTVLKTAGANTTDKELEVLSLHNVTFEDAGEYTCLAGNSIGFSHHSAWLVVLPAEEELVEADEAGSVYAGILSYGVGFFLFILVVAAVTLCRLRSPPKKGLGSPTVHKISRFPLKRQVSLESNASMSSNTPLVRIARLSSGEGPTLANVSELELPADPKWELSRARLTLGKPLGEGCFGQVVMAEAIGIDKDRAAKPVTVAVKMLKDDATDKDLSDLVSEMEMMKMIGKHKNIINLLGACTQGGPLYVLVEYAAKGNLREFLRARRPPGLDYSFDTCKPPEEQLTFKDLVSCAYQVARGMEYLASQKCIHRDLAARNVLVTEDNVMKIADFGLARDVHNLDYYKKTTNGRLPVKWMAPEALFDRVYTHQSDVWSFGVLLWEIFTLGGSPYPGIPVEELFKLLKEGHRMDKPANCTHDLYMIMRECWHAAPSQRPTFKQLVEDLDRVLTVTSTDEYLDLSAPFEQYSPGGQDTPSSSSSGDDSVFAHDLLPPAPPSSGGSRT
Method summary: FGFR biochemical assay (LanthaScreen TR-FRET kinase assay), FGFR3
pIC50: −log10 of the molar value.
Reported pIC50 values for a set of compounds

Solved cases (3 shown):
INSERT INTO assay_data (smiles_notation, measurement_target, quantity, result_value) VALUES
  ('C=C(F)C(=O)Nc1ccc(-c2c(-c3ccc(Oc4nc(C)cc(C)n4)c(F)c3)c(C(N)=O)c3cnc(C)cn23)cc1', 'FGFR3 (Homo sapiens (Human), UniProt P22607)', 'pIC50', '6.00 to 7.00'),
  ('C=CC(=O)Nc1ccc(-c2c(-c3ccc(Oc4cccc(C)n4)cc3)c(C(N)=O)c3cccnn23)cc1', 'FGFR3 (Homo sapiens (Human), UniProt P22607)', 'pIC50', '7.00 to 8.00'),
  ('C=C(F)C(=O)Nc1ccc(-c2c(-c3cccc(C(=O)NC)c3)c(C(N)=O)c3cnc(C)cn23)c(F)c1', 'FGFR3 (Homo sapiens (Human), UniProt P22607)', 'pIC50', '6.00 to 7.00');

-- ask I would be grateful if you could share the reported pIC50 for `C=CC(=O)Nc1ccc(-c2c(-c3ccc(Oc4cccc(C)n4)cc3)c(C(N)=O)c3cncc(C)n23)cc1` .
-- reply 7.00 to 8.00

-- ask I would be grateful if you could share the reported pIC50 for `C=C(C)C(=O)Nc1ccc(-c2c(-c3ccc(Oc4nccc(C)n4)c(F)c3)c(C(N)=O)c3cnccn23)cc1` .
-- reply 6.00 to 7.00

-- ask I would be grateful if you could share the reported pIC50 for `C=CC(=O)Nc1ccc(-c2c(-c3ccc(Oc4nccc(C)n4)cc3)c(C(N)=O)c3cnc(C)cn23)cc1OC` .
-- reply 7.00 to 8.00

-- ask I would be grateful if you could share the reported pIC50 for `Cc1ccnc(Oc2ccc(-c3c(C(N)=O)c4cnc(CO)cn4c3-c3ccc(NC(=O)/C=C/CN(C)C)cc3)cc2)n1` .
-- reply 7.00 to 8.00

-- ask I would be grateful if you could share the reported pIC50 for `C=C(F)C(=O)Nc1ccc(-c2c(-c3ccc(Oc4nccc(C)n4)c(F)c3)c(C(N)=O)c3ccc(C)nn23)cc1` .
-- reply 7.00 to 8.00

-- ask I would be grateful if you could share the reported pIC50 for `C=CC(=O)Nc1ccc(-c2c(-c3ccc(Oc4ccccn4)cc3)c(C(N)=O)c3cnccn23)cc1` .
-- reply 7.00 to 8.00

----------
Reported pIC50 values for a set of compounds
Measurement target: FGFR3 (Homo sapiens (Human), UniProt P22607)
Method summary: FGFR biochemical assay (LanthaScreen TR-FRET kinase assay), FGFR3
Measurement context: read-out: FGFR3 IC50; * incubation at room temperature for 60 minutes before addition of substrate solution; ATP 35 μM; FGFR3 0.1 nM
pIC50: −log10 of the molar value.

Solved cases (3 shown):
INSERT INTO results (smiles_notation, quantity, result_value) VALUES
  ('C=C(F)C(=O)N1CCc2cc(-c3c(-c4ccc(Oc5nccc(C)n5)c(F)c4)c(C(N)=O)c4cnc(C)cn34)c(F)cc21', 'pIC50', '> 8.00'),
  ('C=C(F)C(=O)Nc1ccc(-c2c(-c3ccc(Oc4nccc(C)n4)c(F)c3)c(C(N)=O)c3cc(-c4cnn(C)c4)ncn23)c(F)c1', 'pIC50', '> 8.00'),
  ('C=C(F)C(=O)N1CCc2cc(-c3c(-c4ccc(Oc5nccc(C)n5)c(F)c4)c(C(N)=O)c4cnc(C)cn34)c(C)cc21', 'pIC50', '> 8.00');

-- ask // lookup pIC50 | system=FGFR3 (Homo sapiens (Human), UniProt P22607) | key= `C=C(F)C(=O)Nc1ccc(-c2c(-c3ccc(Oc4nccc(C)n4)c(F)c3)c(C(N)=O)c3cnc(CCO)cn23)c(F)c1`
-- reply > 8.00

-- ask // lookup pIC50 | system=FGFR3 (Homo sapiens (Human), UniProt P22607) | key= `C=C(F)C(=O)Nc1ccc(-c2c(-c3ccc(Oc4nccc(C)n4)c(F)c3)c(C(N)=O)c3cc(-c4cnn(C)c4)ncn23)c(C)c1`
-- reply > 8.00

-- ask // lookup pIC50 | system=FGFR3 (Homo sapiens (Human), UniProt P22607) | key= `C=C(F)C(=O)Nc1ccc(-c2c(-c3ccc(Oc4nccc(C)n4)cc3)c(C(N)=O)c3cnc(CCO)cn23)c(F)c1`
-- reply > 8.00

-- ask // lookup pIC50 | system=FGFR3 (Homo sapiens (Human), UniProt P22607) | key= `C=C(F)C(=O)N1CCc2c1ccc(-c1c(-c3ccc(Oc4nccc(C)n4)c(F)c3)c(C(N)=O)c3cnc(C)cn13)c2F`
-- reply > 8.00

-- ask // lookup pIC50 | system=FGFR3 (Homo sapiens (Human), UniProt P22607) | key= `C=C(F)C(=O)N1CCc2cc(-c3c(-c4ccc(Oc5nccc(C)n5)c(F)c4)c(C(N)=O)c4ccc(C)nn34)c(C)cc21`
-- reply > 8.00

----------
Reported IC50 values for a set of compounds
Measurement target: UniProt P11362
Sequence (P11362 22-822): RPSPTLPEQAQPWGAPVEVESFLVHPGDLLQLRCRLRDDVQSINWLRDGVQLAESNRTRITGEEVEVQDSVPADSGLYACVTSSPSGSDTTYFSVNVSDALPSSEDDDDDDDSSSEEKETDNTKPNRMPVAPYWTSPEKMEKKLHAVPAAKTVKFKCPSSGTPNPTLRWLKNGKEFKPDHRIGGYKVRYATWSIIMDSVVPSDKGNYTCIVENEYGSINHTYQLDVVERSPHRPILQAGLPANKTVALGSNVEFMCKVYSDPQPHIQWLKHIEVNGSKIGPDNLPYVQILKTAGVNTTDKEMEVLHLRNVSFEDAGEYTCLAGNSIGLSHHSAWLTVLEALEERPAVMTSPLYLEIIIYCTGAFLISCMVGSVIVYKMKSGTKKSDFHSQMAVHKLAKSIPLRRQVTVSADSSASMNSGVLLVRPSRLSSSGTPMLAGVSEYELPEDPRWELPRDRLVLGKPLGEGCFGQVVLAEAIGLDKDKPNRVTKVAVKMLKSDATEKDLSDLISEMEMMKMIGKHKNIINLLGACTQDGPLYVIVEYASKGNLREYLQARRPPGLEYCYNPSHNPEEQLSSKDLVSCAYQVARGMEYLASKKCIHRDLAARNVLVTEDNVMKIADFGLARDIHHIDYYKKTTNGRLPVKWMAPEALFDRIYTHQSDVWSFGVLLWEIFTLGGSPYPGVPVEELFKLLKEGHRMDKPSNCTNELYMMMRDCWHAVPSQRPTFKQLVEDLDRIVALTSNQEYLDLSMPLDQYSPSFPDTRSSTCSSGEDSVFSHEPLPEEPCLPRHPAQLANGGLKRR
Method summary: FGFR biochemical assay (LanthaScreen TR-FRET kinase assay), FGFR1

INSERT INTO assay_data (compound, result_value) VALUES
  ('C=CC(=O)Nc1ccc(-c2c(-c3ccc(Oc4cccc(C)n4)cc3)c(C(N)=O)c3n2CCN(C)C3)cc1 [Example 13]', '100 to 1000 nM'),
  ('CC#CC(=O)Nc1ccc(-c2c(-c3ccc(C(=O)NCC4(F)COC4)cc3)c(C(N)=O)c3cnc(C)cn23)cc1 [Example 65]', '100 to 1000 nM');

-- ask I would be grateful if you could share the reported IC50 for Cc1ccnc(Oc2ccc(-c3c(C(N)=O)c4cnc(CO)cn4c3-c3ccc(NC(=O)/C=C/CN(C)C)cc3)cc2)n1 [Example 79] .
-- reply 10 to 100 nM

-- ask I would be grateful if you could share the reported IC50 for C=C(F)C(=O)N1CCc2cc(-c3c(-c4ccc(Oc5nccc(C)n5)c(F)c4)c(C(N)=O)c4cnc(C)cn34)c(C)cc21 [Example 97] .
-- reply 10 to 100 nM

-- ask I would be grateful if you could share the reported IC50 for C=C(F)C(=O)Nc1ccc(-c2c(-c3ccc(C(=O)NCC4(F)COC4)cc3)c(C(N)=O)c3cnc(C)cn23)cc1 [Example 63] .
-- reply 10 to 100 nM

-- ask I would be grateful if you could share the reported IC50 for C=CC(=O)Nc1ccc(-c2c(-c3ccc(Oc4cccc(C)n4)c(OC)c3)c(C(N)=O)c3cnccn23)cc1 [Example 25] .
-- reply 100 to 1000 nM

-- ask I would be grateful if you could share the reported IC50 for C=CC(=O)Nc1ccc(-c2c(-c3ccc(OC)cc3)c(C(N)=O)c3cnccn23)cc1 [Example 22] .
-- reply 100 to 1000 nM

----------
Measurement target: FGFR4 (Homo sapiens (Human))
Sequence (P22455 22-802): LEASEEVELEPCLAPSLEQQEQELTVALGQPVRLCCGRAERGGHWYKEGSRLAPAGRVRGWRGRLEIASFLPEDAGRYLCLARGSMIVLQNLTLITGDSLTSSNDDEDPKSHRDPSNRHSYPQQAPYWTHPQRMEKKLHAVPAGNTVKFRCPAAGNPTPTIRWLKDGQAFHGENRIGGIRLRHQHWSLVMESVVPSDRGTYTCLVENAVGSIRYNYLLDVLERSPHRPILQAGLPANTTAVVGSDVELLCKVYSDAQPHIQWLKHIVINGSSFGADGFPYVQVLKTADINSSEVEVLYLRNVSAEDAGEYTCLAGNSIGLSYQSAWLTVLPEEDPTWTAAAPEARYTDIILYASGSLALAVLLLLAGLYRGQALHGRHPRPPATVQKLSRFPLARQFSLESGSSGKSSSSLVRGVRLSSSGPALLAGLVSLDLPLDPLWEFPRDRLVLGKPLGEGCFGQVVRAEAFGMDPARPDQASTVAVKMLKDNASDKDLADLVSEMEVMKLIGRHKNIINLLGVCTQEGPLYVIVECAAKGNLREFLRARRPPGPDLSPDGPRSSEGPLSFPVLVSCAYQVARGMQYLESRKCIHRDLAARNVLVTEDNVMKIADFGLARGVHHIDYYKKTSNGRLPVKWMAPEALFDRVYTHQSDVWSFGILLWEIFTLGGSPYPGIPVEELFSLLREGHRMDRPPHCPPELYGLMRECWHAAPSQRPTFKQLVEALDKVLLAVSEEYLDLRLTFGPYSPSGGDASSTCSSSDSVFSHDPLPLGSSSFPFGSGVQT
Method summary: FGFR biochemical assay (LanthaScreen TR-FRET kinase assay), FGFR4
Quantity: IC50

INSERT INTO measurements (smiles_notation, quantity, result_value) VALUES
  ('C=CC(=O)Nc1ccc(-c2c(-c3ccc(Oc4cccc(C)n4)cc3)c(C(N)=O)c3cnc(CO)cn23)cc1', 'IC50', '100 to 1000 nM'),
  ('C=CC(=O)Nc1ccc(-c2c(-c3ccc(Oc4cccc(C)n4)cc3)c(C(N)=O)c3cncc(C)n23)cc1', 'IC50', '100 to 1000 nM');

Here is the next item to consider.
-- ask I would be grateful if you could share the reported IC50 for `C=CC(=O)Nc1ccc(-c2c(-c3ccc(Oc4cccc(C)n4)cc3)c(C(N)=O)c3cnc(C)cn23)cc1` .
-- reply 100 to 1000 nM

----------
Reported IC50 values for a set of molecules
Measurement target: UniProtKB P22607
Method summary: FGFR biochemical assay (LanthaScreen TR-FRET kinase assay), FGFR3

Solved cases (4 shown):
INSERT INTO measurements (molecule, measurement_target, result_value) VALUES
  ('C=C(F)C(=O)Nc1ccc(-c2c(-c3ccc(Oc4nccc(C)n4)c(F)c3)c(C(N)=O)c3ccc(C)nn23)c(C)c1 [Example 94]', 'UniProtKB P22607', '10 to 100 nM'),
  ('Cc1cn2c(-c3ccc(NC(=O)/C=C/CN(C)C)cc3)c(-c3ccc(Oc4cccc(C)n4)cc3)c(C(N)=O)c2cn1 [Example 9]', 'UniProtKB P22607', '10 to 100 nM'),
  ('C=C(F)C(=O)Nc1ccc(-c2c(-c3ccc(Oc4nccc(C)n4)c(F)c3)c(C(N)=O)c3cc(C4CC4)ncn23)cc1 [Example 105]', 'UniProtKB P22607', '10 to 100 nM'),
  ('C=C(F)C(=O)N1CCCc2cc(-c3c(-c4ccc(Oc5nccc(C)n5)c(F)c4)c(C(N)=O)c4cnc(C)cn34)c(F)cc21 [Example 98]', 'UniProtKB P22607', '100 to 1000 nM');

-- ask // lookup IC50 | system=UniProtKB P22607 | key= C=C(F)C(=O)N1CCc2cc(-c3c(-c4ccc(Oc5nccc(C)n5)c(F)c4)c(C(N)=O)c4ccc(C)nn34)ccc21 [Example 95]
-- reply 100 to 1000 nM

-- ask // lookup IC50 | system=UniProtKB P22607 | key= C=C(F)C(=O)Nc1ccc(-c2c(-c3ccc(Oc4nccc(C)n4)cc3)c(C(N)=O)c3cnc(C(F)(F)F)cn23)cc1 [Example 56]
-- reply 100 to 1000 nM

Reference source: patent US20250382297A1
